pKi: −log10 of the molar value.
System: Protein kinase C theta type (Homo sapiens, UniProt Q04759) | Read-out: pKi | Origin: multiple publications
experimental_endpoint: pKi

compound="O=c1[nH]c2cnc(NCC3CCNC3)nc2n1Cc1cccc(Cl)c1Cl (stereo not shown)" reading="> 7.00"
compound=CC(C)C[C@H]1CN(c2ccc(C(F)(F)F)c(-c3n[nH]c4ncccc34)n2)CC[C@@H]1O reading="< 6.15"
compound=CC(C)C[C@H]1CN(c2ccc(C(F)(F)F)c(-c3n[nH]c4ncc(Br)cc34)n2)CCN1 reading="> 6.30"
compound=CN1CCC(N2CCN(c3cccc(C(=O)c4cc(Br)cnc4N)n3)CC2)CC1 reading="5.55 to 6.30"

###

System: Protein kinase C theta type (Homo sapiens) | Read-out: Ki | Origin: multiple publications
experimental_endpoint: Ki

molecule=Fc1cccc(Cl)c1-c1nc2cnc(NCc3ccc(Cl)c(Cl)c3)nc2n1C[C@@H]1CCCNC1 reading="< 10000 nM"
molecule=Fc1cccc(Cl)c1-c1nc2cnc(NCc3ccccc3)nc2n1C[C@@H]1CCCNC1 reading="< 1000 nM"
molecule="CC(F)(F)CC1CN(c2cccc(-c3n[nH]c4ncccc34)n2)CCN1 (stereo not shown)" reading="< 50 nM"
molecule=Fc1ccc(CNc2ncc3nc(-c4c(Cl)cccc4Cl)n(C[C@H]4CCNC4)c3n2)cc1F reading="< 100 nM"
molecule="CCC(C)(O)C1CN(c2ccc(F)c(-c3n[nH]c4ncccc34)n2)CCN1 (stereo not shown)" reading="< 50 nM"
molecule=CC(C)[C@@](C)(O)[C@@H]1CN(c2nc(-c3n[nH]c4ncncc34)c(F)cc2F)CCN1 reading="< 1 nM"
molecule="NCC1CCCC(CNc2ccc(C(F)(F)F)c(-c3n[nH]c4ncccc34)n2)C1 (stereo not shown)" reading="> 700 nM"
molecule="CCC(C)(CN)c1csc(-c2ccnc3[nH]nc(Cl)c23)n1 (stereo not shown)" reading="< 50 nM"
molecule=CC(C)C[C@@H]1C[C@H](N)CN(c2ccc(F)c(-c3n[nH]c4ncccc34)n2)C1 reading="< 50 nM"
molecule=NC(=O)c1ccsc1Nc1ccc(C(F)(F)F)c(-c2n[nH]c3ncccc23)n1 reading="> 700 nM"
molecule="NC1CCC(Oc2ccc(C(F)(F)F)c(-c3n[nH]c4ncccc34)n2)CC1 (stereo not shown)" reading="> 700 nM"
molecule=N[C@@H]1CCN(c2cccc(-c3n[nH]c4ncccc34)n2)C1 reading="< 500 nM"
molecule=CC(C)C[C@H]1CN(c2ccc(C(F)(F)F)c(-c3n[nH]c4ncccc34)n2)CC[C@@H]1N reading="< 500 nM"
molecule=OC1([C@@H]2CN(c3nc(-c4n[nH]c5ncccc45)c(F)cc3Cl)CCN2)CC1 reading="< 1 nM"
molecule="NC1CCCC(Nc2cccc(-c3n[nH]c4ncccc34)n2)C1 (stereo not shown)" reading="< 50 nM"
molecule=NC(=O)C1(N)CCN(c2ccc(F)c(-c3n[nH]c4ncccc34)n2)CC1 reading="> 700 nM"
molecule="CC(C)C(C)(O)C1CN(c2nc(-c3n[nH]c4ncccc34)ccc2F)CCN1 (stereo not shown)" reading="< 1 nM"
molecule=FC(F)(F)c1ccc(NCC2CCNCC2)nc1-c1n[nH]c2ncccc12 reading="> 700 nM"
molecule=CC(C)C[C@@]1(F)CN(c2ccc(F)c(-c3n[nH]c4ncccc34)n2)CC[C@H]1O reading="< 500 nM"
molecule=CC(C)CC1(CN)CN(c2ccc(F)c(-c3n[nH]c4ncccc34)n2)C1 reading="> 700 nM"
molecule="CC(C)C[C@@H]1CC(F)(c2cccc(-c3n[nH]c4ncccc34)n2)CCN1 (stereo partly shown)" reading="< 500 nM"
molecule="CC(C)C(C)(O)C1CN(c2cccc(-c3n[nH]c4ncccc34)n2)CCN1 (stereo not shown)" reading="< 1 nM"
molecule=CC(C)C[C@H]1CN(c2ccc(Cl)c(-c3n[nH]c4ncccc34)n2)CCN1 reading="< 50 nM"
molecule=NC[C@H]1CC[C@H](n2c(-c3ccccc3Cl)nc3cnc(NCc4ccccc4F)nc32)CC1 reading="< 1000 nM"
molecule="CC(C)CC1(C)CN(c2ccc(C(F)(F)F)c(-c3n[nH]c4ncccc34)n2)CCN1 (stereo not shown)" reading="< 50 nM"
molecule=CC[C@H](CO)Nc1ccc(C(F)(F)F)c(-c2n[nH]c3ncccc23)n1 reading="> 700 nM"
molecule="CC1(C)CC1(O)C1CN(c2ccc(F)c(-c3n[nH]c4ncccc34)n2)CCN1 (stereo not shown)" reading="< 1 nM"
molecule=O=C1CNCCN1c1cccc(-c2n[nH]c3ncccc23)n1 reading="> 700 nM"
molecule=CC(C)(O)[C@@H]1CN(c2cccc(-c3n[nH]c4ncccc34)n2)CCN1 reading="< 50 nM"
molecule="CC(C)C(O)(C1CN(c2ccc(F)c(-c3n[nH]c4ncccc34)n2)CCN1)C(F)(F)F (stereo not shown)" reading="< 50 nM"
molecule=Cc1ccccc1Cn1c(=O)[nH]c2cnc(NCCCN)nc21 reading="< 1000 nM"
molecule=CC(C)CC1(C#N)CN(c2ccc(F)c(-c3n[nH]c4ncccc34)n2)C1 reading="> 700 nM"
molecule=NC1CCN(c2cc(CO)cc(-c3n[nH]c4ncccc34)n2)CC1 reading="< 50 nM"
molecule=c1cnc2[nH]nc(-c3nccc(N4CCNCC4)n3)c2c1 reading="> 700 nM"
